Numbers sourced from paper PMC10865806.

Each entry below carries its recorded pKi.
- Tgt: CMY-2 (Klebsiella pneumoniae)
- Construct: all CMY-2 variant genes encoding the mature enzyme without a signal peptide were cloned into the protein expression plasmid vector pET-30b; made in house; host or cells: E. coli BL21 (DE3), pET-30b
- Test protocol: Competitive inhibition of cephalothin hydrolysis and avibactam inhibition kinetics
- Format: biochemical, Escherichia coli
- Applied conditions: reporter substrate cephalothin 100 µM, Dixon plot, read-out: Ki app
pKi: −log10 of the molar value.
Measurement name: pKi

[[record]]
structure_smiles = "CC(C)(O/N=C(\\C(=O)N[C@@H]1C(=O)N2C(C(=O)[O-])=C(C[n+]3ccccc3)CS[C@H]12)c1csc(N)n1)C(=O)O"
measurement_name = "pKi"
reading = 6.15

[[record]]
structure_smiles = "CC(C)(O/N=C(\\C(=O)N[C@@H]1C(=O)N2C(C(=O)[O-])=C(C[N+]3(CCNC(=O)c4ccc(O)c(O)c4Cl)CCCC3)CS[C@H]12)c1csc(N)n1)C(=O)O"
measurement_name = "pKi"
reading = 5.10

[[record]]
structure_smiles = "NC(=O)[C@@H]1CC[C@@H]2CN1C(=O)N2OS(=O)(=O)O"
measurement_name = "pKi"
reading = 7.20


---

- Tgt: CMY-2 variant V211S_N346Y (Klebsiella pneumoniae, UniProt Q48434, N366Y/V231S)
- Construct: all CMY-2 variant genes encoding the mature enzyme without a signal peptide were cloned into the protein expression plasmid vector pET-30b; made in house; host or cells: E. coli BL21 (DE3), pET-30b
- Test protocol: Steady-state hydrolysis kinetics
- Format: biochemical, Escherichia coli
- Applied conditions: V211S_N346Y; PBS pH 7.2, 25°C
Measurement name: Km (µM)

[[record]]
compound = "CC(C)(O/N=C(\\C(=O)N[C@@H]1C(=O)N2C(C(=O)[O-])=C(C[n+]3ccccc3)CS[C@H]12)c1csc(N)n1)C(=O)O [Ceftazidime, ceftazidime]"
measurement_name = "Km"
reading = 37

[[record]]
compound = "CC(=O)OCC1=C(C(=O)O)N2C(=O)[C@@H](NC(=O)Cc3cccs3)[C@H]2SC1 [Cephalothin, cephalothin]"
measurement_name = "Km"
reading = 4.4

[[record]]
compound = "CC(C)(O/N=C(\\C(=O)N[C@@H]1C(=O)N2C(C(=O)[O-])=C(C[N+]3(CCNC(=O)c4ccc(O)c(O)c4Cl)CCCC3)CS[C@H]12)c1csc(N)n1)C(=O)O [Cefiderocol, cefiderocol]"
measurement_name = "Km"
reading = 6.9

[[record]]
compound = "O=C(Cc1cccs1)N[C@@H]1C(=O)N2C(C(=O)O)=C(/C=C/c3ccc([N+](=O)[O-])cc3[N+](=O)[O-])CS[C@H]12 [Nitrocefin, nitrocefin]"
measurement_name = "Km"
reading = 35


---

- Tgt: CMY-2 variant A114E_N346Y (Klebsiella pneumoniae, UniProt Q48434, A134E/N366Y)
- Construct: all CMY-2 variant genes encoding the mature enzyme without a signal peptide were cloned into the protein expression plasmid vector pET-30b; made in house; host or cells: E. coli BL21 (DE3), pET-30b
- Test protocol: Steady-state hydrolysis kinetics
- Assay type: biochemical, Escherichia coli
- Applied conditions: substrate inhibition, Haldane equation
Measurement name: Ki (µM)

[[record]]
compound = "O=C(Cc1cccs1)N[C@@H]1C(=O)N2C(C(=O)O)=C(/C=C/c3ccc([N+](=O)[O-])cc3[N+](=O)[O-])CS[C@H]12 [Nitrocefin, nitrocefin]"
measurement_name = "Ki"
result_unit = "µM"
reading = 68


---

- Tgt: V211S (CMY-42) (Klebsiella pneumoniae, UniProt Q48434, V231S)
- Construct: all CMY-2 variant genes encoding the mature enzyme without a signal peptide were cloned into the protein expression plasmid vector pET-30b; made in house; host or cells: E. coli BL21 (DE3), pET-30b
- Test protocol: Steady-state hydrolysis kinetics
- Assay type: biochemical, Escherichia coli
- Applied conditions: substrate inhibition, Haldane equation
Measurement name: Ki (µM)

[[record]]
structure_smiles = "O=C(Cc1cccs1)N[C@@H]1C(=O)N2C(C(=O)O)=C(/C=C/c3ccc([N+](=O)[O-])cc3[N+](=O)[O-])CS[C@H]12"
measurement_name = "Ki"
reading = 130


---

Each entry below carries its recorded pKi.
- Tgt: CMY-2 variant N346Y (Klebsiella pneumoniae, UniProt Q48434, N366Y)
- Construct: all CMY-2 variant genes encoding the mature enzyme without a signal peptide were cloned into the protein expression plasmid vector pET-30b; made in house; host or cells: E. coli BL21 (DE3), pET-30b
- Test protocol: Competitive inhibition of cephalothin hydrolysis and avibactam inhibition kinetics
- Type: biochemical, Escherichia coli
- Applied conditions: N346Y; reporter substrate cephalothin 100 µM, Dixon plot; read-out: Ki app
pKi: −log10 of the molar value.
Measurement name: pKi

[[record]]
molecule = "NC(=O)[C@@H]1CC[C@@H]2CN1C(=O)N2OS(=O)(=O)O [Avibactam, avibactam]"
reading = 4.39

[[record]]
molecule = "CC(C)(O/N=C(\\C(=O)N[C@@H]1C(=O)N2C(C(=O)[O-])=C(C[n+]3ccccc3)CS[C@H]12)c1csc(N)n1)C(=O)O [Ceftazidime, ceftazidime]"
reading = 6.15

[[record]]
molecule = "CC(C)(O/N=C(\\C(=O)N[C@@H]1C(=O)N2C(C(=O)[O-])=C(C[N+]3(CCNC(=O)c4ccc(O)c(O)c4Cl)CCCC3)CS[C@H]12)c1csc(N)n1)C(=O)O [Cefiderocol, cefiderocol]"
reading = 6.15


---

- Tgt: CMY-2 variant V211S_N346Y (Klebsiella pneumoniae, UniProt Q48434, N366Y/V231S)
- Construct: all CMY-2 variant genes encoding the mature enzyme without a signal peptide were cloned into the protein expression plasmid vector pET-30b; made in house; host or cells: E. coli BL21 (DE3), pET-30b
- Test protocol: Steady-state hydrolysis kinetics
- Type: biochemical, Escherichia coli
- Applied conditions: V211S_N346Y; PBS pH 7.2, 25°C
Each entry below carries its recorded kcat.
Measurement name: kcat (s⁻¹)

[[record]]
structure_smiles = "CC(C)(O/N=C(\\C(=O)N[C@@H]1C(=O)N2C(C(=O)[O-])=C(C[n+]3ccccc3)CS[C@H]12)c1csc(N)n1)C(=O)O"
tgt = "CMY-2 variant V211S_N346Y (Klebsiella pneumoniae, UniProt Q48434, N366Y/V231S)"
result_unit = "s⁻¹"
reading = 0.3

[[record]]
structure_smiles = "O=C(Cc1cccs1)N[C@@H]1C(=O)N2C(C(=O)O)=C(/C=C/c3ccc([N+](=O)[O-])cc3[N+](=O)[O-])CS[C@H]12"
tgt = "CMY-2 variant V211S_N346Y (Klebsiella pneumoniae, UniProt Q48434, N366Y/V231S)"
result_unit = "s⁻¹"
reading = 85

[[record]]
structure_smiles = "CC(=O)OCC1=C(C(=O)O)N2C(=O)[C@@H](NC(=O)Cc3cccs3)[C@H]2SC1"
tgt = "CMY-2 variant V211S_N346Y (Klebsiella pneumoniae, UniProt Q48434, N366Y/V231S)"
result_unit = "s⁻¹"
reading = 9.6

[[record]]
structure_smiles = "CC(C)(O/N=C(\\C(=O)N[C@@H]1C(=O)N2C(C(=O)[O-])=C(C[N+]3(CCNC(=O)c4ccc(O)c(O)c4Cl)CCCC3)CS[C@H]12)c1csc(N)n1)C(=O)O"
tgt = "CMY-2 variant V211S_N346Y (Klebsiella pneumoniae, UniProt Q48434, N366Y/V231S)"
result_unit = "s⁻¹"
reading = 0.049


---

- Tgt: CMY-2 (Klebsiella pneumoniae, UniProt Q48434)
- Construct: all CMY-2 variant genes encoding the mature enzyme without a signal peptide were cloned into the protein expression plasmid vector pET-30b; made in house; host or cells: E. coli BL21 (DE3), pET-30b
- Test protocol: Steady-state hydrolysis kinetics
- Assay type: biochemical, Escherichia coli
- Applied conditions: substrate inhibition, Haldane equation
Measurement name: Ki

[[record]]
structure_smiles = "O=C(Cc1cccs1)N[C@@H]1C(=O)N2C(C(=O)O)=C(/C=C/c3ccc([N+](=O)[O-])cc3[N+](=O)[O-])CS[C@H]12"
tgt = "CMY-2 (Klebsiella pneumoniae, UniProt Q48434)"
measurement_name = "Ki"
reading = "160 µM"


---

- Tgt: V211S (CMY-42) (Klebsiella pneumoniae, UniProt Q48434, V231S)
- Construct: all CMY-2 variant genes encoding the mature enzyme without a signal peptide were cloned into the protein expression plasmid vector pET-30b; made in house; host or cells: E. coli BL21 (DE3), pET-30b
- Test protocol: Steady-state hydrolysis kinetics
- Type: biochemical, Escherichia coli
- Applied conditions: PBS pH 7.2, 25°C
Each entry below carries its recorded kcat.
Measurement name: kcat (s⁻¹)

[[record]]
structure_smiles = "O=C(Cc1cccs1)N[C@@H]1C(=O)N2C(C(=O)O)=C(/C=C/c3ccc([N+](=O)[O-])cc3[N+](=O)[O-])CS[C@H]12"
tgt = "V211S (CMY-42) (Klebsiella pneumoniae, UniProt Q48434, V231S)"
reading = 320

[[record]]
structure_smiles = "CC(C)(O/N=C(\\C(=O)N[C@@H]1C(=O)N2C(C(=O)[O-])=C(C[N+]3(CCNC(=O)c4ccc(O)c(O)c4Cl)CCCC3)CS[C@H]12)c1csc(N)n1)C(=O)O"
tgt = "V211S (CMY-42) (Klebsiella pneumoniae, UniProt Q48434, V231S)"
reading = 0.034

[[record]]
structure_smiles = "CC(C)(O/N=C(\\C(=O)N[C@@H]1C(=O)N2C(C(=O)[O-])=C(C[n+]3ccccc3)CS[C@H]12)c1csc(N)n1)C(=O)O"
tgt = "V211S (CMY-42) (Klebsiella pneumoniae, UniProt Q48434, V231S)"
reading = 1.5

[[record]]
structure_smiles = "CC(=O)OCC1=C(C(=O)O)N2C(=O)[C@@H](NC(=O)Cc3cccs3)[C@H]2SC1"
tgt = "V211S (CMY-42) (Klebsiella pneumoniae, UniProt Q48434, V231S)"
reading = 83

